Data origin, for the record: ChEMBL document CHEMBL1146848

assay: Half life in rat; type: ADME, organism-based; conditions: in vivo
metric: half-life (min)
Numbers only, in min.

Ask | What measured half-life goes with CCN(CC)CCOc1ccc(Nc2ncc3c(n2)N2CCC(=O)N2C(c2c(Cl)cccc2Cl)=C3)cc1 ?
Reply | 90

###

Task for the reader: assign each of the following compounds its reported pIC50.
target: Tyrosine-protein kinase HCK (Homo sapiens); experiment: Inhibition of human recombinant Hck in presence of 10 mM ATP
Sequence (P08631 whole entry): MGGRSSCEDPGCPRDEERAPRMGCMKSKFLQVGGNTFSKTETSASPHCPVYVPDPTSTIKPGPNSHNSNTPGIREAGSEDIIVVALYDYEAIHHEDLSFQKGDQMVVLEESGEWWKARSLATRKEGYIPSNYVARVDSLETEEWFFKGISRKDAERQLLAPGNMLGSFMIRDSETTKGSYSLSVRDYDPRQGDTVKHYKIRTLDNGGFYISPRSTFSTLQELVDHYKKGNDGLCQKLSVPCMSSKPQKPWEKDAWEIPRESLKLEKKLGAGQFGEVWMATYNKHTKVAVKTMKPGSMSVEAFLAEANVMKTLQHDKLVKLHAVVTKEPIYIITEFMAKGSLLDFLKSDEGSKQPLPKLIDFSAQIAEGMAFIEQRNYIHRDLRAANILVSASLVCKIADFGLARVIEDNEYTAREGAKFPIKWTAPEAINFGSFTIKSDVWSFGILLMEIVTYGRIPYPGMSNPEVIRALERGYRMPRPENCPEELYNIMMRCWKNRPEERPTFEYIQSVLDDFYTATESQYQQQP
Numbers only, as −log10 of the molar value.

Consider the worked cases shown below.
structure string: CN1CCN(c2ccc(Nc3ncc4c(n3)N3CCC(=O)N3C(c3cc(O)ccc3Cl)=C4)cc2)CC1
system name: Tyrosine-protein kinase HCK (Homo sapiens)
pIC50: 6.34

structure string: CN(C)c1ccc(Nc2ncc3c(n2)N2CCC(=O)N2C(c2cc(O)ccc2Cl)=C3)cc1
system name: Tyrosine-protein kinase HCK (Homo sapiens)
pIC50: 6.26

structure string: O=C1CCN2c3nc(Nc4ccc(N5CCOCC5)cc4)ncc3C=C(c3c(Cl)cccc3Cl)N12
system name: Tyrosine-protein kinase HCK (Homo sapiens)
pIC50: 6.80

Continue with the compound presented below.
Ask | What measured pIC50 goes with CCN(CC)CCOc1ccc(Nc2ncc3c(n2)N2CCC(=O)N2C(c2c(Cl)cccc2Cl)=C3)cc1 ?
Reply | 7.32

###

test: Bioavailability in rat; type: ADME, organism-based; conditions: in vivo
metric: bioavailability (%)
Numbers only, in %.

Ask | What measured bioavailability goes with CCN(CC)CCOc1ccc(Nc2ncc3c(n2)N2CCC(=O)N2C(c2c(Cl)cccc2Cl)=C3)cc1 ?
Reply | 14

###

biological target: UniProt:P06239; experiment: Inhibition of human recombinant Lck in presence of 10 mM ATP; settings: read-out: IC50
Sequence (P06239 whole entry): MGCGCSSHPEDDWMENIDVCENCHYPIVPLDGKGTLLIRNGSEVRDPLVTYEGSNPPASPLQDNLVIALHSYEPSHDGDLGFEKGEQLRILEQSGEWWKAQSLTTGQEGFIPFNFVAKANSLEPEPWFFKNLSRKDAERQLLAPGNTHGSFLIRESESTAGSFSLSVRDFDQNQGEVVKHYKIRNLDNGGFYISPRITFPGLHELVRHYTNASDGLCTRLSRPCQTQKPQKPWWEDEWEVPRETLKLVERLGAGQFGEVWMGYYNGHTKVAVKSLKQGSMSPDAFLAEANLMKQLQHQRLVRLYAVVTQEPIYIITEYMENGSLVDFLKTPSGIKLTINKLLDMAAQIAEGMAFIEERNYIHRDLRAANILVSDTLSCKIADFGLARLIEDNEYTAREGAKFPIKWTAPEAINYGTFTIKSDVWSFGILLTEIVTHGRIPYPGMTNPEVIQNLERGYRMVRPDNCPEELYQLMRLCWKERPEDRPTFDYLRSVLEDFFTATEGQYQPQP
Each record's class is read off its IC50 using these ranges: lo (below 40 nM), med (40 nM to below 3000 nM), hi (3000 nM or more)

Example results:
structure string: CNc1ncc2c(n1)N1CCC(=O)N1C(c1c(Cl)cccc1Cl)=C2
answer label: med
//
structure string: COc1ccc(Cl)c(C2=Cc3cnc(Nc4ccc(F)cc4)nc3N3CCC(=O)N23)c1
answer label: hi
//
structure string: CCN(CC)c1ccc(Nc2ncc3c(n2)N2CCC(=O)N2C(c2c(Cl)cccc2Cl)=C3)cc1
answer label: med
//
structure string: COc1ccccc1Nc1ncc2c(n1)N1CCC(=O)N1C(c1c(Cl)cccc1Cl)=C2
answer label: hi
//
structure string: COc1ccc(Nc2ncc3c(n2)N2CCC(=O)N2C(c2c(Cl)cccc2Cl)=C3)cc1
answer label: med
//
structure string: COc1cccc(Nc2ncc3c(n2)N2CCC(=O)N2C(c2c(Cl)cccc2Cl)=C3)c1
answer label: med

Ask | Please report the category associated with CN(C)c1ccc(Nc2ncc3c(n2)N2CCC(=O)N2C(c2c(Cl)cccc2Cl)=C3)cc1 , nothing else.
Reply | lo

Ask | Please report the category associated with COC(=O)c1ccc(Nc2ncc3c(n2)N2CCC(=O)N2C(c2c(Cl)cccc2Cl)=C3)cc1 , nothing else.
Reply | med

Ask | Please report the category associated with CCN(CC)CCOc1ccc(Nc2ncc3c(n2)N2CCC(=O)N2C(c2c(Cl)cccc2Cl)=C3)cc1 , nothing else.
Reply | lo

###

Task for the reader: assign each of the following molecules its reported solubility.
experiment: Aqueous solubility of the compound; type: physicochemical; details: buffer

Consider the worked cases shown below.
structure string: CN(C)c1ccc(Nc2ncc3c(n2)N2CCC(=O)N2C(c2cc(O)ccc2Cl)=C3)cc1
solubility: 1 µg/mL
--
structure string: CCN(CC)CCOc1ccc(Nc2ncc3c(n2)N2CCC(=O)N2C(c2c(Cl)cccc2Cl)=C3)cc1
solubility: 33.8 µg/mL
--
structure string: O=C1CCN2c3nc(Nc4ccccc4)ncc3C=C(c3c(Cl)cccc3Cl)N12
solubility: 2 µg/mL
--
structure string: COc1ccc(Nc2ncc3c(n2)N2CCC(=O)N2C(c2c(Cl)cccc2Cl)=C3)cc1
solubility: 5 µg/mL
--
structure string: O=C1CCN2c3nc(Nc4ccc(N5CCOCC5)cc4)ncc3C=C(c3c(Cl)cccc3Cl)N12
solubility: 6 µg/mL

Record solubility for all entries; do not skip any.
1. O=C1CCN2c3nc(Nc4ccc(F)cc4)ncc3C=C(c3c(Cl)cccc3Cl)N12
2. CN(C)c1ccc(Nc2ncc3c(n2)N2CCC(=O)N2C(c2c(Cl)cccc2Cl)=C3)cc1
3. CN1CCN(c2ccc(Nc3ncc4c(n3)N3CCC(=O)N3C(c3cc(O)ccc3Cl)=C4)cc2)CC1

Reply |
2 µg/mL
5 µg/mL
11 µg/mL

Record solubility for all entries; do not skip any.
1. COc1ccc(Cl)c(C2=Cc3cnc(Nc4ccc(N(C)C)cc4)nc3N3CCC(=O)N23)c1
2. COc1ccc(Cl)c(C2=Cc3cnc(Nc4ccc(F)cc4)nc3N3CCC(=O)N23)c1
3. CCN(CC)c1ccc(Nc2ncc3c(n2)N2CCC(=O)N2C(c2c(Cl)cccc2Cl)=C3)cc1

Reply |
7 µg/mL
7 µg/mL
1 µg/mL

Ask | What measured solubility goes with CN(C)CCc1ccc(Nc2ncc3c(n2)N2CCC(=O)N2C(c2c(Cl)cccc2Cl)=C3)cc1 ?
Reply | 10 µg/mL
